The origin of these recorded values is patent US20130203718A1.

QUANTITY: melting point

Recorded results for 3 molecules are shown here.
## Input Record request: melting point value, item CC1CCC2C3CC=C4CC5(CC[C@]4(C)C3CC[C@]2(C)[C@H]1F)OCCO5 (stereo partly shown)
## Output 146 to 147 °C

## Input I have this molecule here, "C[C@]12CC[C@H](F)CC1=CC[C@@H]1[C@@H]2CC[C@]2(C)C(=O)CC[C@@H]12" , and I need its recorded melting point.
## Output 155 to 156 °C

## Input Look up melting point: CC#C[C@]1(O)CCC2C3CC=C4C[C@@H](F)CC[C@@H]4C3CC[C@@]21C (stereo partly shown)
## Output 72 to 73 °C

---
## Input # melting point lookup, item CC#C[C@]1(O)CCC2C3CC[C@H]4CCCC[C@]4(C)C3CC[C@@]21C (stereo partly shown)
## Output 150 to 151 °C

###

QUANTITY: melting point

## Input Field request: melting point | item: C[C@]12CCC3C(CC=C4C[C@@H](F)CC[C@@H]43)C1CCC2=O (stereo partly shown)
## Output 102 to 103 °C

## Input For the compound "C[C@]12CC[C@H]3[C@@H](CC=C4C[C@@H](F)CC[C@@]43C)[C@@H]1CC[C@@H]2O" , what melting point is on record?
## Output 165 to 166 °C

## Input Any idea what melting point was measured for CC(=O)O[C@H]1CCC2C3CC=C4C=CCC[C@@H]4C3CC[C@@]21C (stereo partly shown) ?
## Output 94 to 95 °C

## Input Report melting point for "CC(=O)[C@H]1CC[C@H]2[C@@H]3CC=C4C=CCC[C@]4(C)[C@H]3CC[C@]12C" please.
## Output 135 to 136 °C

## Input Entry C[C@H](O)[C@H]1CCC2C3CC=C4C=CCC[C@]4(C)C3CC[C@@]21C (stereo partly shown) : reported melting point = ?
## Output 103 to 104 °C

New cases:
## Input What does the data say about its melting point? Entry: C#C[C@]1(O)CCC2C3CC[C@H]4CCCC[C@]4(C)C3CC[C@@]21C (stereo partly shown)
## Output 152 to 153 °C

## Input melting point for "C[C@]12CC[C@H](F)C[C@@H]1CC[C@@H]1[C@@H]2CC[C@]2(C)[C@@H](O)CC[C@@H]12" ?
## Output 150 to 151 °C

## Input Which melting point value belongs to "CC(=O)[C@H]1CC[C@H]2[C@@H]3CC=C4C[C@@H](F)CC[C@]4(C)[C@H]3CC[C@]12C" ?
## Output 166 to 167 °C

## Input Find the recorded melting point belonging to CO[C@H]1CC[C@@]2(C)C(=CC[C@H]3[C@@H]4CC[C@H](C(C)O)[C@@]4(C)CC[C@@H]32)C1 (mixture of isomers) and report it.
## Output 124 to 125 °C

## Input Entry under review: "CO[C@H]1CC[C@@]2(C)[C@@H](CC[C@@H]3[C@@H]2CC[C@]2(C)[C@@H](C(C)=O)CC[C@@H]32)C1" . Reported melting point?
## Output 125 to 126 °C

###

TARGET SYSTEM: hGR (Homo sapiens, UniProt P04150)
Construct: expressed in transfected cells; host or cells: HEK 293T
Sequence (P04150 whole entry): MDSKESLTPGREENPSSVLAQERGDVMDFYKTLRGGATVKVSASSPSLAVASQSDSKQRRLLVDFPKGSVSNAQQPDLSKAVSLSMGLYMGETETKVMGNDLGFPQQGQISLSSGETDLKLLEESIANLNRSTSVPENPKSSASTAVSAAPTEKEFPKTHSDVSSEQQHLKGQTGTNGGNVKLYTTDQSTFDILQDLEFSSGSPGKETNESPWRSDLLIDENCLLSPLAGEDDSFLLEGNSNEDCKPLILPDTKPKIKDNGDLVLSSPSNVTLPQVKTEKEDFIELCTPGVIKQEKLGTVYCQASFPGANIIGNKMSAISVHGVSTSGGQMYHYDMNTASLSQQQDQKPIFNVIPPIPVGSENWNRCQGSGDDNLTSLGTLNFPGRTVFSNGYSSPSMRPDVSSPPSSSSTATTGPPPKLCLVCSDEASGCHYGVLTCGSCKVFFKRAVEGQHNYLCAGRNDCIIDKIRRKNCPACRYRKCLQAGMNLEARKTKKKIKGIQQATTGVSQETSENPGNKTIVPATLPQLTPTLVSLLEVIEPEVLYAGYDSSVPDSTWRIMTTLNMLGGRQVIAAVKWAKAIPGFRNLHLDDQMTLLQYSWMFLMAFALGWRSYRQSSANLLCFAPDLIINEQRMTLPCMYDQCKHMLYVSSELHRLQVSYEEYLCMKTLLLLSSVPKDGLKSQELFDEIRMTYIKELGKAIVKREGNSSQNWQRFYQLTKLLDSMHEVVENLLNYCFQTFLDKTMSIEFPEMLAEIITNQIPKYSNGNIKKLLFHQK
ASSAY OVERVIEW: APRn selectivity: transactivation in HEK293T cells transiently expressing hGR
Type: cell-based
DETAILS: HEK293T transiently expressing hGR, dexamethasone 10^−9 M, mean±SEM
QUANTITY: GR Antagonist efficacy (%)
Answer in %, number only, no unit symbol.

Sample answers from the record:
## Input Form entry - test system: hGR (Homo sapiens, UniProt P04150); read-out: GR Antagonist efficacy (%); compound: CC#C[C@]1(O)CCC2C3CC=C4C[C@@H](F)CC[C@]4(C)C3CC[C@@]21C (stereo partly drawn) [APR-44]
## Output 2.0

## Input GR Antagonist efficacy (%) of CC#C[C@]1(O)CCC2C3CC[C@H]4CCCC[C@]4(C)C3CC[C@@]21C (stereo partly drawn) [APR-42, 17α-(1-Propynyl)-5α-androstan-17β-ol] on hGR (Homo sapiens, UniProt P04150)?
## Output 4.4

## Input Can you look up GR Antagonist efficacy (%) on hGR (Homo sapiens, UniProt P04150) for CC#C[C@]1(O)CCC2C3CC[C@H]4CCCC[C@@H]4C3CC[C@@]21C (stereo partly drawn) [APR-54] ?
## Output −0.1

## Input Hello, I am looking for reported GR Antagonist efficacy (%) with hGR (Homo sapiens, UniProt P04150) for C[C@@H]1CCC2C3CC=C4C[C@@H](F)CC[C@]4(C)C3CC[C@]2(C)[C@H]1F (stereo partly drawn) [APR-19] . Could you help?
## Output −3.5

## Input Give recorded GR Antagonist efficacy (%) with hGR (Homo sapiens, UniProt P04150) for the following compound: CC#C[C@]1(O)CCC2C3CC=C4C[C@@H](F)CC[C@@H]4C3CC[C@@]21C (stereo partly drawn) [APR-51]
## Output 19.3

Continuing:
## Input Kindly state the measured GR Antagonist efficacy (%) obtained for CC#C[C@]1(O)CCC2C3CC[C@H]4C[C@@H](F)CC[C@]4(C)C3CC[C@@]21C (stereo partly drawn) [APR-43] with hGR (Homo sapiens, UniProt P04150).
## Output −9.0

## Input I'm curious: which GR Antagonist efficacy (%) was measured for C[C@]12CC[C@H](F)C[C@@H]1CC[C@@H]1[C@@H]2CC[C@]2(C)[C@@H](O)CC[C@@H]12 [APR-40, 3β-Fluoro-5α-androstan-17β-ol] tested on hGR (Homo sapiens, UniProt P04150)?
## Output 5.5

## Input Identify the measured GR Antagonist efficacy (%) of CC(=O)[C@H]1CC[C@H]2[C@@H]3CC=C4C[C@@H](F)CC[C@]4(C)[C@H]3CC[C@]12C [APR-16, 3β-Fluoropregn-5-en-20-one] for hGR (Homo sapiens, UniProt P04150).
## Output 0.1

## Input Provide the documented GR Antagonist efficacy (%) with hGR (Homo sapiens, UniProt P04150) as the system for C[C@]12CCC3C(CC=C4C[C@@H](F)CC[C@@H]43)C1CCC2=O (stereo partly drawn) [APR-47, 3β-Fluoro-19-nor-androst-5-en-17-one]
## Output 1.5
